- target_of_assay: T1, cynoSIRPα (XP_015313155), Extracellular Domain + His-Tag (cynomolgus monkey)
- T1 construct: also called CySIRPα XP_015313155; not shown: His-Tag
- T1 chain: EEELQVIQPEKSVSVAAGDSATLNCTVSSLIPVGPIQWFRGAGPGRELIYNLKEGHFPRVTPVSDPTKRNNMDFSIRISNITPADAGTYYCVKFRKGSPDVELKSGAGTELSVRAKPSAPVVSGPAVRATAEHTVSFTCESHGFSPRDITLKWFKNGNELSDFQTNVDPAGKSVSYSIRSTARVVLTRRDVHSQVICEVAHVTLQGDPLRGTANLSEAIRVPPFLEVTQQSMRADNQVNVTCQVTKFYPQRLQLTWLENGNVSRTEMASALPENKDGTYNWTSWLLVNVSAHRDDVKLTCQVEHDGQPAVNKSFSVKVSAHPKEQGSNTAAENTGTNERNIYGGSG
- assay_text: SPR, antibody captured on Protein A/G, ECD-His analyte, 1:1 fit
readout_name: koff (s⁻¹)
Just the number in s⁻¹, nothing appended.

Antibody E20 (antibody, human IgG1, kappa, L234A L235A, V domains shown) VH: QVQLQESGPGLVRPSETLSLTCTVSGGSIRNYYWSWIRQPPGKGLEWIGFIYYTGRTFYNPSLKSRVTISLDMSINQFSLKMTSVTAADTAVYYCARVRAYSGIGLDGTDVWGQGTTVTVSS VL: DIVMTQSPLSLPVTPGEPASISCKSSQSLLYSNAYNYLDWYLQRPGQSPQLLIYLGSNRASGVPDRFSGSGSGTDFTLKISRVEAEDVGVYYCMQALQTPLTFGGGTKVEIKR	0.0261
Antibody E5 (antibody, human IgG1, kappa, L234A L235A, V domains shown) VH: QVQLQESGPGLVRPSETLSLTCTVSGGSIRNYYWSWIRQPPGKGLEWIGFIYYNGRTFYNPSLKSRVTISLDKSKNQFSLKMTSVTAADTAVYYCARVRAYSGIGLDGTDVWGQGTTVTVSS VL: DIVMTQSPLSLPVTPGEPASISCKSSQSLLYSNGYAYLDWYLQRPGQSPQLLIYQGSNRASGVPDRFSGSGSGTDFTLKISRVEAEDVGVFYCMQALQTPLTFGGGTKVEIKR	0.00459
Antibody E10 (antibody, human IgG1, kappa, L234A L235A, V domains shown) VH: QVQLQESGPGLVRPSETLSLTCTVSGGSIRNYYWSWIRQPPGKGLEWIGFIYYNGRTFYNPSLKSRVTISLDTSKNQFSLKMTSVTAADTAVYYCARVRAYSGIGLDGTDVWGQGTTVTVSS VL: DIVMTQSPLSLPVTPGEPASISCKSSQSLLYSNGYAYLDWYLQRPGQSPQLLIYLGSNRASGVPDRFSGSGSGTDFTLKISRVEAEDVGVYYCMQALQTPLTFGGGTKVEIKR	0.00526
Antibody E3 (antibody, human IgG1, kappa, L234A L235A, V domains shown) VH: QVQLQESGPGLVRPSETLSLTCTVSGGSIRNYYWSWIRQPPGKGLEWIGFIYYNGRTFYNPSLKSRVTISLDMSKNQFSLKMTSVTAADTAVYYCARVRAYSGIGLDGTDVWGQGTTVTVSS VL: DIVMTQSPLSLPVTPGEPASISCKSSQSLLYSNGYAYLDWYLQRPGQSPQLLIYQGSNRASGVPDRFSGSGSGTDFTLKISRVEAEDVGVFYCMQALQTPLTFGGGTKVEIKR	0.00288

Problem: What value of measured koff is listed for Antibody E12 (antibody, human IgG1, kappa, L234A L235A, V domains shown) VH: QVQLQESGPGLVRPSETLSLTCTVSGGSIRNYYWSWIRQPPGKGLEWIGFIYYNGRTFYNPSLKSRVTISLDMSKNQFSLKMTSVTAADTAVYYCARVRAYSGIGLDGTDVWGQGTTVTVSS VL: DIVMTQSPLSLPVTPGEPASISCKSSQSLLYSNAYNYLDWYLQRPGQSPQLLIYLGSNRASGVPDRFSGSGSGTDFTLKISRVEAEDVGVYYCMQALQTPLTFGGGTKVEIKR ?
Solution: 0.0125
